IC50 (pM), IL-13 induced TF-1 cell proliferation reference
testTarget: T1, human IL-4Rα on TF-1 cells (human, UniProt P24394 26-825)
T1 sequence (looked up): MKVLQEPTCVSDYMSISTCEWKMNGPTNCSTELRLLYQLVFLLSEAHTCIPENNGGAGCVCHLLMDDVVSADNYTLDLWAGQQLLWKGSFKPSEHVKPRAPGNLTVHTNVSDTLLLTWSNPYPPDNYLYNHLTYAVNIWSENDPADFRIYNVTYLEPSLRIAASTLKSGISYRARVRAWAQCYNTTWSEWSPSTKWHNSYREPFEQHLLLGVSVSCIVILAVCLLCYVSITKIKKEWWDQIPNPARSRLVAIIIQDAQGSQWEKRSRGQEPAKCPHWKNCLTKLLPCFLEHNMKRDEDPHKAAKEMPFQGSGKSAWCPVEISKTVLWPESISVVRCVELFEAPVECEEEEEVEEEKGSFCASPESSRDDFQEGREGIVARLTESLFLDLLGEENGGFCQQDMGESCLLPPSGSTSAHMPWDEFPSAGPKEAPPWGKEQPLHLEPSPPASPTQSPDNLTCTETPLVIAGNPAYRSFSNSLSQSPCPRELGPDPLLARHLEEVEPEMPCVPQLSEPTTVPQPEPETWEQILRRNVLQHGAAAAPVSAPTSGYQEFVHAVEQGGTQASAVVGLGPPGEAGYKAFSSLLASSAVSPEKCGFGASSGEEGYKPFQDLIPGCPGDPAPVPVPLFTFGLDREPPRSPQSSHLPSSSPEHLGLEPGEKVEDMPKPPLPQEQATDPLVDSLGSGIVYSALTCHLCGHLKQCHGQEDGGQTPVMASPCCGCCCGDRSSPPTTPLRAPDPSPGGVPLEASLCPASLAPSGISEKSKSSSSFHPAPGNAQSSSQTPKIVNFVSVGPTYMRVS
protocolSummary: cell-based or functional assay
Answer with the value and then the unit.

{"binder": "Antibody 4 IgG (antibody, V domains shown) VH: QVQLVQSGAEVKKPGASVKVSCKASGYAFTSYYMHWARQAPGQGLEWMGIINPSGGSTSYAQKFQGRVTMTRDTSTSTVYMELSSLRSEDTAVYYCARGKWWLYNWGKGTLVTVSS VL: QSVLTQPPSVSAAPGQKVTISCSGGSSNIGNSYVSWYQQLPGTAPKLLIYDNNKRPSGIPDRFSGSKSGTSATLAITGLQTGDEADYYCGTWDTSSPPQPIFGTGTKLTVL", "valueObserved": "58.1 pM"}
{"binder": "Antibody 7 IgG (antibody, V domains shown) VH: QVQLVQSGAEVKKPGASVKVSCKASGYAFTSYYMHWARQAPGQGLEWMGIINPSGGSTSYAQKFQGRVTMTRDTSTSTVYMELSSLRSEDTAVYYCARGKWWWQYWGKGTLVTVSS VL: QSVLTQPPSVSAAPGQKVTISCSGGSSNIGNSYVSWYQQLPGTAPKLLIYDNNKRPSGIPDRFSGSKSGTSATLAITGLQTGDEADYYCGTWDTSSPPQPIFGTGTKLTVL", "valueObserved": "42.7 pM"}

Read the next record carefully.
Query string: # IC50 (pM), IL-13 induced TF-1 cell proliferation lookup, item Antibody 13 IgG (antibody, V domains shown) VH: QVQLVQSGAEVKKPGASVKVSCKASGYAFTSYYMHWARQAPGQGLEWMGIINPSGGSTSYAQKFQGRVTMTRDTSTSTVYMELSSLRSEDTAVYYCARGKWWLYDWGKGTLVTVSS VL: QSVLTQPPSVSAAPGQKVTISCSGGSSNIGNSYVSWYQQLPGTAPKLLIYDNNKRPSGIPDRFSGSKSGTSATLAITGLQTGDEADYYCGTWDTSTTLQPLFGTGTKLTVL
Result string: 24.6 pM
